tested on: A549 cells; assay: CCK-8 antiproliferative assay, A549; format: cell-based; settings: Homo sapiens, cell viability (CCK-8), 48 h
pIC50: −log10 of the molar value.
test-readout: pIC50

>>> obs_value("COc1cc(-n2ccc3ccc(-c4cccc(C#N)c4)cc32)cc(OC)c1OC")
4.39
>>> obs_value("COc1cc(-n2ccc3ccc(-c4ccc(C#N)cc4F)cc32)cc(OC)c1OC")
4.32
>>> obs_value("CCc1ccccc1-c1ccc2ccn(-c3cc(OC)c(OC)c(OC)c3)c2c1")
4.22
>>> obs_value("COc1cc(-n2ccc3ccc(-c4cccc(C)c4)cc32)cc(OC)c1OC")
4.03

Just for reference, paper PMC12693167 is where these values come from.
